src = patent US20220348558A1

Consider the following compounds and their measured EC50 readings.
System: WEEV California
Assay: microbe, parasite or virus in culture
Format: cell-based
Details: Western equine encephalitis virus, Vero 76, 48 h, read-out: WEEV California EC50 nM

{"columns": ["compound", "experimental result"],
 "data": [
  ["COc1ccc(-n2c([C@H]3CCCN3)nc3c(-c4cncc(C#N)c4)cc([N+](=O)[O-])cc3c2=O)cc1F", "51 to 150 nM"],
  ["COc1c(F)cc(-n2c([C@H]3CCCN3)nc3c(-c4ccc(C)nc4)cc(C#N)cc3c2=O)cc1F", "1 to 50 nM"],
  ["CN1CCC(N2CCC[C@H]2c2nc3ccc([N+](=O)[O-])cc3c(=O)n2-c2ccccc2)CC1", "> 1000 nM"]
]}

# next compound below
Please give measured EC50 of the following entry: COc1ccc(-n2c(C3CCCN3)nc3c(-c4cnc5ccccc5c4)cc(C#N)cc3c2=O)cc1F (stereo not shown) 1 to 50 nM
